In this section we review reported inhibition values for a set of compounds.
System: Tyrosine-protein kinase ABL1 (Homo sapiens), P00519 [Q252H]
Measurement Context: at 0.1 µM
Measured Attribute: inhibition (%)

| Test Smiles | Test Value |
| --- | --- |
| N#Cc1cccc(Nc2nccc(-c3cnn4ncccc34)n2)c1 | 15.2 |
| CN(C)C(=O)O[C@@H]1CN[C@@H](C#Cc2cc3ncnc(Nc4ccc(OCc5cccc(F)c5)c(Cl)c4)c3s2)C1 | 2.52 |
| Nc1ccc(C#Cc2cncnc2Nc2ccc(OCc3cccc(F)c3)c(Cl)c2)cc1 | 2.9 |
| c1ccc(Cc2nc3ccc(Nc4ncnc5ccccc45)cc3[nH]2)cc1 | 4.19 |
| NS(=O)(=O)c1ccc(NC=C2C(=O)Nc3ccc4ncsc4c32)cc1 | 14.4 |
| [O-][S+]1CCN(Cc2ccc(-c3ccc4ncnc(Nc5ccc(OCc6ccccc6)c(Cl)c5)c4c3)o2)CC1 | 2.06 |
| CCOc1nccc2c1nc(-c1nonc1N)n2CC | 2.67 |
| COC(=O)c1ccc2c(c1)C(=Cc1cc(Br)c(O)c(Br)c1)C(=O)N2 | 2.75 |
| CC(C)c1ccc(Nc2nccc(-c3cnn4ncccc34)n2)cc1 | 2.85 |
| COc1ccc2ncnc(Nc3ccc(OCc4ccccc4)cc3)c2c1 | 0.25 |
| N#Cc1c(NC(=O)c2ccccc2F)sc2c1CCCC2 | -0.76 |
| O=C(Nc1ccc(Oc2ccc3[nH]c(NC(=O)c4ccco4)nc3c2)cc1)Nc1cc(C(F)(F)F)ccc1F | 68.6 |
| COc1cc(/C=N/Nc2ncnc3c2cnn3C(C)C)ccc1O | 35.4 |
| Cc1cc(-c2ccccn2)cc(C)c1/C=C/c1cncc(-c2nn[nH]n2)c1 | 3.34 |
| O=C1Nc2ccc(-c3cccnc3)cc2C1=Cc1cc(Br)c(O)c(Br)c1 | 2.79 |
| NS(=O)(=O)c1cccc(Nc2cc(-c3ccc(F)cc3)n[nH]2)c1 | 4.73 |
| ON=C1CCc2cc(-c3nc(C4CCNCC4)[nH]c3-c3ccncc3)ccc21 | 1.13 |
| FC(F)(F)c1ccc(-c2nn3ncccc3c2-c2ccnc(Nc3ccc4c(c3)OCCO4)n2)cc1 | 2.75 |
| NS(=O)(=O)c1ccc(Nc2cc(-c3cccc(O)c3)n[nH]2)cc1 | 5.44 |
| NS(=O)(=O)c1ccc(-c2cc3ccncc3cc2OCc2ccccc2)cc1 | 4.84 |
| COc1cc(Nc2nccc(-c3cnn4ncccc34)n2)cc(OC)c1 | 18 |
| O=S(=O)(CCOCc1ccc(-c2ccc3ncnc(Nc4ccc(OCc5cccc(F)c5)c(Cl)c4)c3c2)o1)c1ccccc1 | 3.02 |
| C[C@@H](Oc1cc(-n2cnc3ccc(OC[C@@H](O)CO)cc32)sc1C(N)=O)c1ccccc1Cl | -1.76 |
| CN(C)CCCn1c(-c2nonc2N)nc2cnccc21 | 3.76 |
| Cc1cc(Cl)cc2c1NC(=O)C2=NNc1ccc(S(N)(=O)=O)cc1 | 4.15 |
| COc1cc2ncn(-c3cc(OCc4ccccc4S(C)(=O)=O)c(C#N)s3)c2cc1OC | 10 |
| Cc1nc(-c2ccccc2)n2nc(NCCCN3CCOCC3)ncc12 | 3.04 |

* * *

Tested System: Tyrosine-protein kinase Mer (Homo sapiens) (UniProt Q12866);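 further: values are mean inhibition of human MER kinase, from the GSK PKIS profiling panel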
Sequence (Q12866 whole entry): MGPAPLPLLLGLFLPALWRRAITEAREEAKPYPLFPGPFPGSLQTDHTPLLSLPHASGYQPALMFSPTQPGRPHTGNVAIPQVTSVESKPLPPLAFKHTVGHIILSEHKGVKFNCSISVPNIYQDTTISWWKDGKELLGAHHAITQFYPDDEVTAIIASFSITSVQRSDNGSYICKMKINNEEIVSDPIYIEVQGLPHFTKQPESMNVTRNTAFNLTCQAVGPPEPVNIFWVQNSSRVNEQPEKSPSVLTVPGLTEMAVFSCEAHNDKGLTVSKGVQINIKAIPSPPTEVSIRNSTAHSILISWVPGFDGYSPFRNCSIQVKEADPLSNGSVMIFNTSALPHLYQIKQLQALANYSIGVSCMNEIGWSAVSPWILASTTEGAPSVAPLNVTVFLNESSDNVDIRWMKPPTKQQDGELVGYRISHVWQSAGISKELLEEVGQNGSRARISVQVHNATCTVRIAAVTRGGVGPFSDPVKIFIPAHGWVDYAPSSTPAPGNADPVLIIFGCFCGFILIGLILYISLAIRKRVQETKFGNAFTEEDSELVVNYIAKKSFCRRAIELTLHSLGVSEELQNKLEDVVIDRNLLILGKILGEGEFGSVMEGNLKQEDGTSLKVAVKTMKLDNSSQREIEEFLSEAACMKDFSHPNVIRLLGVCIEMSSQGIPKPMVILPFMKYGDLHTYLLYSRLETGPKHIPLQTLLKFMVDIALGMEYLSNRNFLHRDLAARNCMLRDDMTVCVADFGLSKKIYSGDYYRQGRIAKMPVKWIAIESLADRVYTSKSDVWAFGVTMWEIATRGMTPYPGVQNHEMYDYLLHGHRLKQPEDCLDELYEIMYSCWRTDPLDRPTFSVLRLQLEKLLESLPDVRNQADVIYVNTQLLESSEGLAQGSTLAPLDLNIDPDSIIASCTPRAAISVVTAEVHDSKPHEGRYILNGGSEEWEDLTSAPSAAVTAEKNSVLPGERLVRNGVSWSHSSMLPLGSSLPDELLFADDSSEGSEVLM
Measurement Context: at 1 µM
Where inhibition equals or exceeds 3%, the correct label is satisfied; where it does not, the label is not satisfied.

| Compound | Tested System | Cat |
| --- | --- | --- |
| NS(=O)(=O)c1cccc(-c2cc3ccncc3cc2OCc2ccccc2)c1 | Tyrosine-protein kinase Mer (Homo sapiens) (UniProt Q12866) | satisfied |
| O=S(=O)(CCOCc1ccc(-c2ccc3ncnc(Nc4ccc(OCc5cccc(F)c5)c(Cl)c4)c3c2)o1)c1ccccc1 | Tyrosine-protein kinase Mer (Homo sapiens) (UniProt Q12866) | satisfied |
| Cc1ccc2c(c1)/C(=N/Nc1ccc(S(N)(=O)=O)cc1)C(=O)N2 | Tyrosine-protein kinase Mer (Homo sapiens) (UniProt Q12866) | not satisfied |
| CCCN1CCCC(c2ccc(Nc3nc(Nc4cc(F)ccc4C(N)=O)c4cc[nH]c4n3)c(OC)c2)C1 (stereo unspecified) | Tyrosine-protein kinase Mer (Homo sapiens) (UniProt Q12866) | satisfied |
| COc1cc2ncnc(Nc3ccc(C)c(O)c3)c2cc1OC | Tyrosine-protein kinase Mer (Homo sapiens) (UniProt Q12866) | satisfied |
| Cc1ccc(C(=O)NC2CC2)cc1-c1ccc2[nH]ncc2c1 | Tyrosine-protein kinase Mer (Homo sapiens) (UniProt Q12866) | not satisfied |
| CN(C)CCCn1c(-c2nonc2N)nc2cnccc21 | Tyrosine-protein kinase Mer (Homo sapiens) (UniProt Q12866) | not satisfied |
| CS(=O)(=O)Nc1cccc(-c2ccc3c(NC(=O)C4CC4)n[nH]c3c2)c1 | Tyrosine-protein kinase Mer (Homo sapiens) (UniProt Q12866) | not satisfied |
| Nc1nccc(C#Cc2cncnc2Nc2ccc(OCc3cccc(F)c3)c(Cl)c2)n1 | Tyrosine-protein kinase Mer (Homo sapiens) (UniProt Q12866) | satisfied |
| CC(C)c1ccc2c(c1)NC(=O)/C2=N/Nc1ccc(S(N)(=O)=O)cc1 | Tyrosine-protein kinase Mer (Homo sapiens) (UniProt Q12866) | not satisfied |
| Nc1nccc(-c2c(-c3ccc(F)cc3)nn3cc(C(F)(F)F)ccc23)n1 | Tyrosine-protein kinase Mer (Homo sapiens) (UniProt Q12866) | not satisfied |
| CCOc1nccc2c1nc(-c1nonc1N)n2CC | Tyrosine-protein kinase Mer (Homo sapiens) (UniProt Q12866) | satisfied |
| CN(c1ccc(NC(=O)Nc2ccc(OC(F)(F)F)cc2)cc1)c1ccnc(Nc2cccc(S(N)(=O)=O)c2)n1 | Tyrosine-protein kinase Mer (Homo sapiens) (UniProt Q12866) | satisfied |
| COc1cc(Nc2nccc(-c3cnn4ncccc34)n2)cc(OC)c1 | Tyrosine-protein kinase Mer (Homo sapiens) (UniProt Q12866) | satisfied |
| NS(=O)(=O)c1ccc(-c2cc3ccncc3cc2OCc2ccccc2)cc1 | Tyrosine-protein kinase Mer (Homo sapiens) (UniProt Q12866) | not satisfied |
